# MEASUREMENT DESCRIPTION: drug combination growth inhibition, ovarian cancer – cell-based, oncology-focused library, rucaparib conditional, profiling panel (AID 1508598)
# CONDITION INFO: patient-derived ovarian cancer cells, CellTiter-Glo viability, 144 h; at 1.25 µM; OCI-C5x cells; without rucaparib; active compounds read low
READOUT KIND: viability (%)
Numbers only, in %.

Before answering, review these 8 worked examples.
1. COc1cc(OC2CCN(C)CC2)ccc1Nc1ncc2c(n1)n(C1CCCC1)c(=O)n2C = 115
2. CC(C)C[C@H](NC(=O)CNC(=O)c1cc(Cl)ccc1Cl)B(O)O = 6.01
3. Nc1cccc2c1C(=O)N(C1CCC(=O)NC1=O)C2=O (configuration not stated) = 117
4. O=C(NCCCNc1nc(Nc2cccc(NC(=O)N3CCCC3)c2)ncc1I)c1cccs1 = 120
5. O=c1cc(N2CCOCC2)oc2c(-c3cccc4c3sc3ccccc34)cccc12 = 108
6. CN1CCN(c2ccc3nc(-c4c(N)c5c(F)cccc5[nH]c4=O)[nH]c3c2)CC1 = 127
7. CS(=O)(=O)N1CCc2c(-c3cnc(N)nc3)nc(N3CCOCC3)nc21 = 118
8. CC[C@H](Nc1ncnc2nc[nH]c12)c1nc2cccc(F)c2c(=O)n1-c1ccccc1 = 139

Lab note: each compound below needs its viability filled in.
1. Cc1ccc2c(=O)c3cccc(CC(=O)O)c3oc2c1C
2. CC(C)(C)c1cnc(CSc2cnc(NC(=O)C3CCNCC3)s2)o1
3. CNC(=O)c1cc(COc2nnc(Nc3ccc(Cl)cc3)c3ccoc23)ccn1

OUTPUT:
1: 127; 2: 9.99; 3: 114

====

# MEASUREMENT DESCRIPTION: growth inhibition, MDA-MB-436, cell-based, BGB or cisplatin combos, synergistic combos for chromothripsis tumors (AID 1671458);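 note: cells exposed for 96 hours; 0% = vehicle DMSO and 100% = killing by high DMSO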
# CONDITION INFO: MDA-MB-436 breast carcinoma growth inhibition, drug combinations; at 0.5 µM; active compounds read high
READOUT KIND: inhibition (%)
Numbers only, in %.

1. CC(=O)Nc1nc(C)c(-c2ccc(Cl)c(S(=O)(=O)NCCO)c2)s1 = 1.41
2. COc1ccc(C(=O)CC2(O)C(=O)Nc3c(Cl)ccc(Cl)c32)cc1 (stereo unspecified) = 2.68
3. Nc1ccc(-c2ccc3ncc4ccc(=O)n(-c5cccc(C(F)(F)F)c5)c4c3c2)cn1 = 12

Lab note: each compound below needs its inhibition filled in.
1. COc1ccc(-n2c(SCCCN3C(=O)c4cccc5cccc(c45)C3=O)nnc2-c2ccncc2)cc1
2. Nc1ccccc1NC(=O)c1ccc(CNc2nccc(-c3cccnc3)n2)cc1
3. CC(C)OC(=O)[C@H](C)N[P@](=O)(OC[C@H]1O[C@@H](n2ccc(=O)[nH]c2=O)[C@](C)(F)[C@@H]1O)Oc1ccccc1
4. COc1ccc(C(=O)C2CCN(CC(=O)N(Cc3nc4c(c(=O)[nH]3)COCC4)CC3CC3)CC2)cc1

OUTPUT:
1: -5.31; 2: 23.7; 3: -14.4; 4: -12.3

====

# MEASUREMENT DESCRIPTION: compounds altering viability of human ES cells (AID 493140);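 note: cells exposed to compounds for four days before counting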
# CONDITION INFO: human embryonic stem cell survival screen
The source made the active and inactive calls. The rule behind the calls is not given here.
Entry note: the call must match one of active, inactive

1) O=c1cc(-c2ccc(O)c(O)c2)oc2cc(O)cc(O)c12 = inactive

INPUT: What did the test return for CC/C=C\C/C=C\C/C=C\C/C=C\C/C=C\CCCC(=O)O ?
OUTPUT: inactive

INPUT: What did the test return for CO[C@H]1/C=C/O[C@@]2(C)Oc3c(C)c(O)c4c(O)c(c(/C=N/N5CCN(C)CC5)c(O)c4c3C2=O)NC(=O)/C(C)=C\C=C\[C@H](C)[C@H](O)[C@@H](C)[C@@H](O)[C@@H](C)[C@H](OC(C)=O)[C@@H]1C ?
OUTPUT: inactive

INPUT: What did the test return for COc1ccc(-c2ccc(N)[n+](CCCC(=O)O)n2)cc1 ?
OUTPUT: inactive

INPUT: What did the test return for CCCCC/C=C\C/C=C\C/C=C\CCCCC(=O)O ?
OUTPUT: inactive

INPUT: What did the test return for CCN(CC)CCOc1ccc(/C(=C(/Cl)c2ccccc2)c2ccccc2)cc1 ?
OUTPUT: inactive
